- METHOD_DESCRIPTION: RSV-A Assay: The description is Japanese.
Provide the reported EC50 of each item.

# annotated cases, reported EC50 shown
C#Cc1nc(C(=O)O)c(N2CCOCC2)s1	< 400 nM
N#CCCNc1cc(C(F)(F)F)cnc1-c1nnc(N[C@H]2N=C(c3ccccc3)c3ccccc3NC2=O)o1	< 400 nM
O=C1Nc2ccccc2C(c2ccccc2)=NC1Nc1nnc(-c2cccnn2)o1 (stereo not given)	> 800 nM

Fill in EC50 for record O=C1Nc2ccccc2C(c2ccccc2)=NC1Nc1nnc(-c2ccc(-n3cnnc3)cc2)o1 (stereo not given)
> 800 nM

----------
- METHOD_DESCRIPTION: RSV-A Assay: The description is Japanese.
OUTCOME_MEASURE: EC50

# annotated cases, reported EC50 shown
O=C1Nc2ccccc2C(c2ccccc2)=N[C@@H]1Nc1nnc(-c2cnc(N3CC4CCC(C3)O4)nc2)o1	> 800 nM
O=C1Nc2ccccc2C(c2ccccc2)=N[C@@H]1Nc1nnc(-c2nc3ccccc3nc2N2CCOCC2)o1	< 400 nM
O=C1Nc2ccccc2C(c2ccccc2)=N[C@@H]1Nc1nnc(-c2ccc(N3CCOCC3)cc2F)o1	< 400 nM

Provide EC50 for all items below, preserving their order.
1. O=C1Nc2ccccc2C(c2ccccc2)=NC1Nc1nnc(-c2ncc(C(F)(F)F)cc2N2CCOCC2)o1 (stereo not drawn)
2. CC(C)(c1nc(-c2nnc(N[C@H]3N=C(c4ccccc4)c4ccccc4NC3=O)o2)c(N2CCOCC2)s1)N1CCOCC1
3. Cc1cccc(-c2nnc(NC3N=C(c4ccccc4)c4ccccc4NC3=O)o2)n1 (stereo not drawn)
4. O=C1Nc2ccccc2C(c2ccccc2)=N[C@@H]1Nc1nnc(-c2nc(C(F)(F)F)sc2N[C@@H]2CCOC2)o1
5. COc1ccccc1-c1nc(-c2nnc(N[C@H]3N=C(c4ccccc4)c4ccccc4NC3=O)o2)c(N2CCOCC2)s1
6. O=C1Nc2ccccc2C(c2ccccc2)=NC1Nc1nnc(-c2ccc(-n3cncn3)nc2)o1 (stereo not drawn)

1. < 400 nM
2. < 400 nM
3. > 800 nM
4. < 400 nM
5. < 400 nM
6. > 800 nM

Provide EC50 for all items below, preserving their order.
1. Cn1ccnc1-c1nnc(NC2N=C(c3ccccc3)c3ccccc3NC2=O)o1 (stereo not drawn)
2. COCCNc1ccc(-c2nnc(NC3N=C(c4ccccc4)c4ccccc4NC3=O)o2)cc1 (stereo not drawn)
3. CO[C@@H]1COC[C@H]1Nc1cc(C(F)(F)F)cnc1-c1nnc(N[C@H]2N=C(c3ccccc3)c3ccccc3NC2=O)o1
4. O=C1Nc2ccccc2C(c2ccccc2)=NC1Nc1nnc(-c2ccccc2NCc2ccccn2)o1 (stereo not drawn)
5. CC(C)(O)c1nnc(NC2N=C(c3ccccc3)c3ccccc3NC2=O)o1 (stereo not drawn)
6. O=C1Nc2ccccc2C(c2ccccc2)=NC1Nc1nc(-c2ccccc2)no1 (stereo not drawn)

1: > 800 nM; 2: > 800 nM; 3: < 400 nM; 4: > 800 nM; 5: > 800 nM; 6: > 800 nM

Fill in EC50 for record O=C1Nc2ccccc2C(c2ccccc2)=N[C@@H]1Nc1nnc(-c2nc(-c3ccccc3)sc2N2CCOCC2)o1
< 400 nM

----------
- METHOD_DESCRIPTION: RSV-A Assay: The description is Japanese.
pEC50: −log10 of the molar value.
OUTCOME_MEASURE: pEC50

N#Cc1cnc(-c2nnc(N[C@H]3N=C(c4ccccc4)c4ccccc4NC3=O)o2)c(N2CCOCC2)c1	> 6.40
CSC(=N)NC1N=C(c2ccccc2)c2ccccc2NC1=O (stereo not given)	> 6.40
COc1ccc(CN2C(=O)C(C)(N=[N+]=[N-])N=C(c3ccccc3)c3ccccc32)cc1 (stereo not given)	< 6.10
O=C1Nc2ccccc2C(c2ccccc2)=NC1Nc1nnc(C2CCOC2)o1 (stereo not given)	< 6.10

Now turn to the next molecule.
Fill in pEC50 for record O=C1Nc2ccccc2C(c2ccccc2)=N[C@@H]1Nc1nnc(-c2nc(C(F)(F)F)sc2N2CCO[C@H]3C[C@H]32)o1
> 6.40

----------
- METHOD_DESCRIPTION: RSV-A Assay: The description is Japanese.
OUTCOME_MEASURE: EC50

# annotated cases, reported EC50 shown
CN(C)c1cc(C(F)(F)F)cnc1-c1nnc(N[C@H]2N=C(c3ccccc3)c3ccccc3NC2=O)o1	> 0.8 µM
COC[C@@H]1C[C@H]1c1sc(C(F)(F)F)nc1-c1nnc(N[C@H]2N=C(c3ccccc3)c3ccccc3NC2=O)o1	> 0.8 µM
CC(C)n1cc(-c2nnc(N[C@H]3N=C(c4ccccc4)c4ccccc4NC3=O)o2)c(N2CCOCC2)n1	< 0.4 µM

Provide EC50 for all items below, preserving their order.
1. O=C1Nc2ccccc2C(c2ccccc2)=N[C@@H]1Nc1nnc(-c2cccnc2N2CCn3ncnc3C2)o1
2. COC(=O)c1ccc(N2CCCC2)cc1N1CCOCC1
3. CC(C)c1nnc(NC2N=C(c3ccccc3)c3ccccc3NC2=O)o1 (stereo not drawn)
4. O=C1Nc2ccccc2C(c2ccccc2)=NC1Nc1nnc(-c2ccc(F)cc2F)o1 (stereo not drawn)
5. O=c1c(Br)cccn1Cc1ccccc1
6. O=C1Nc2ccccc2C(c2ccccc2)=NC1Nc1nnc(-c2ccccc2N2CCOCC2)[nH]1 (stereo not drawn)

1: > 0.8 µM; 2: < 0.4 µM; 3: > 0.8 µM; 4: > 0.8 µM; 5: > 0.8 µM; 6: > 0.8 µM

Provide EC50 for all items below, preserving their order.
1. O=C1Nc2ccccc2C(c2ccccc2)=NC1Nc1nc2ccccc2o1 (stereo not drawn)
2. CCOC(=O)c1ccnc2ccc(COC)cc12
3. CC(C)(O)CNc1cc(C(F)(F)F)cnc1-c1nnc(N[C@H]2N=C(c3ccccc3)c3ccccc3NC2=O)o1
4. COC1CN(c2ncccc2-c2nnc(NC3N=C(c4ccccc4)c4ccccc4NC3=O)o2)C1 (stereo not drawn)
5. CCOC(=O)c1ccc(F)cc1N1CCOCC1

1. > 0.8 µM
2. > 0.8 µM
3. < 0.4 µM
4. > 0.8 µM
5. < 0.4 µM

Provide EC50 for all items below, preserving their order.
1. O=C1Nc2ccccc2C(c2ccccc2)=NC1Nc1nnc(-c2cnccn2)o1 (stereo not drawn)
2. O=C1Nc2ccccc2C(c2ccccc2)=NC1Nc1nnc(-c2ccncn2)o1 (stereo not drawn)
3. O=C1Nc2ccccc2C(c2ccccc2)=NC1Nc1nnc(-c2ccc(F)cc2)[nH]1 (stereo not drawn)

> 0.8 µM
> 0.8 µM
> 0.8 µM

Provide EC50 for all items below, preserving their order.
1. O=C1Nc2ccccc2C(c2ccccc2)=NC1Nc1ccc(-c2ccccc2N2CCOCC2)nn1 (stereo not drawn)
2. CN1C(=O)C(Nc2nnc(-c3ccc(F)cc3)o2)N=C(c2ccccc2)c2ccccc21 (stereo not drawn)
3. COC(=O)c1nc(Br)sc1N1CCOCC1
4. O=C1Nc2ccccc2C(c2ccccc2)=NC1Nc1nnc(-c2ncccn2)o1 (stereo not drawn)

1: > 0.8 µM; 2: > 0.8 µM; 3: < 0.4 µM; 4: > 0.8 µM

Provide EC50 for all items below, preserving their order.
1. CCOC(=O)c1nc(C(F)(F)F)sc1C1=CCOCC1
2. O=C1Nc2ccccc2C(c2ccccc2)=N[C@@H]1Nc1nnc(-c2ncc(C(F)(F)F)cc2N2C3CCC2COC3)o1
3. O=C1Nc2ccccc2C(c2ccccc2)=N[C@@H]1Nc1nnc(-c2ncc(C(F)(F)F)cc2N2CCOC(C(F)(F)F)C2)o1 (stereo partly drawn)

< 0.4 µM
< 0.4 µM
< 0.4 µM

Provide EC50 for all items below, preserving their order.
1. O=C1Nc2ccccc2C(c2ccccc2)=N[C@@H]1Nc1nnc(-c2nc(C3(C(F)(F)F)CCC3)sc2N2CCOCC2)o1
2. Cn1ncc(-c2nnc(N[C@H]3N=C(c4ccccc4)c4ccccc4NC3=O)o2)c1N1CCOCC1
3. O=C1Nc2ccccc2C(c2ccccc2)=NC1Nc1nnc(CC(F)(F)F)o1 (stereo not drawn)

["< 0.4 µM", "> 0.8 µM", "> 0.8 µM"]

Provide EC50 for all items below, preserving their order.
1. O=C1Nc2ccccc2C(c2ccccc2)=N[C@@H]1Nc1nnc(-c2nc(C(F)(F)F)sc2N2CCOCC2)o1
2. O=C1Nc2ccccc2C(c2ccccc2)=N[C@@H]1Nc1nnc(-c2cnc(-n3cccn3)nc2N2CCOCC2)o1

1. < 0.4 µM
2. > 0.8 µM

Provide EC50 for all items below, preserving their order.
1. COC1CN(c2cc(C(F)(F)F)cnc2-c2nnc(N[C@H]3N=C(c4ccccc4)c4ccccc4NC3=O)o2)C1
2. O=C1Nc2ccccc2C(c2ccccc2)=NC1Nc1nnc(-c2ccc(N3CCOCC3)c(F)c2)o1 (stereo not drawn)

1. > 0.8 µM
2. > 0.8 µM

----------
- METHOD_DESCRIPTION: RSV-A Assay: The description is Japanese.
OUTCOME_MEASURE: EC50

# annotated cases, reported EC50 shown
O=C1Nc2ccccc2C(c2ccccc2)=N[C@@H]1Nc1nnc(-c2ncc(C(F)(F)F)cc2N2CCOC3CC32)o1 (some centres undefined)	< 400 nM
O=C1Nc2ccccc2C(c2ccccc2)=N[C@@H]1Nc1nnc(-c2ncc(C(F)(F)F)cc2N[C@@H]2CCOC2)o1	< 400 nM
O=C1Nc2ccccc2C(c2ccccc2)=NC1Nc1nnc(-c2ccc(N3CCOCC3)cn2)o1 (centres undefined)	> 800 nM
COCc1nnc(NC2N=C(c3ccccc3)c3ccccc3NC2=O)o1 (centres undefined)	> 800 nM
O=C1Nc2ccccc2C(c2ccccc2)=NC1Nc1nnc([C@H]2COCCN2)o1 (some centres undefined)	> 800 nM
O=C1Nc2ccccc2C(c2ccccc2)=NC1Nc1nnc(-c2ccc(OC3CCOCC3)cc2)o1 (centres undefined)	> 800 nM
O=C(O)c1ccncc1N1CCCCC1	> 800 nM

Now turn to the next compound.
Fill in EC50 for record O=C1Nc2c(F)cccc2C(c2ccccc2)=N[C@H]1Nc1nnc(-c2ccccc2N2CCOCC2)o1
> 800 nM

Where do the numbers come from? From ChEMBL document CHEMBL5729210.
